# assayNotes: Neurotoxicity in mouse HT-22 cells assessed as reduction in cell viability at 50 uM
# Format: toxicity, cell-based
# conditionContext: ht-22, 50 µM
measurementName: Activity

Give its Activity value. Item: C#CCCC[N+]1=C(/C=C/C2=C3Oc4cc(OC(=O)C5CC5)ccc4C=C3CCC2)C(C)(C)c2ccccc21.[I-] Toxic

And CCN(CC)Cc1ccccc1CNC(=O)c1cccc(NC(=O)c2ccc(F)cc2)c1 ? Non-Toxic

// repeat for Nc1c2c(nc3ccccc13)CCCC2 and report Non-Toxic

Also need CCN(CC)Cc1ccccc1CNC(=O)c1cccc(NC(=O)c2cccc(C(=O)NCCn3cc(CCC[N+]4=C(/C=C/C5=C6Oc7cc(OC(=O)C8CC8)ccc7C=C6CCC5)C(C)(C)c5ccccc54)nn3)c2)c1.[I-] , thanks. Non-Toxic

====

# assayNotes: Permeability of compound incubated for 18 hrs by PAMPA-BBB based UV plate spectroscopic reader analysis
# Format: ADME
# conditionContext: read-out: permeability
Consider the following compounds; for each one, report its Papp at 18 h.
Numbers only, in ×10⁻⁶ cm/s.

Give the measured Papp at 18 h of CCN(CC)Cc1ccccc1CNC(=O)c1cccc(NC(=O)c2cccc(C(=O)NCCn3cc(CCC[N+]4=C(/C=C/C5=C6Oc7cc(OC(=O)C8CC8)ccc7C=C6CCC5)C(C)(C)c5ccccc54)nn3)c2)c1.[I-] . 15.5

Now turn to the next compound.
What value of Papp at 18 h has been reported for the following compound? C#CCCC[N+]1=C(/C=C/C2=C3Oc4cc(OC(=O)C5CC5)ccc4C=C3CCC2)C(C)(C)c2ccccc21.[I-] 5.97
